# ASSAY_SUMMARY: self-splicing fitness, log relative to wild type (ln ratio); higher = more splicing; Tetrahymena group I intron in knt gene, E. coli kanamycin selection, DiMSum; sequences stand for … in CUCUCU…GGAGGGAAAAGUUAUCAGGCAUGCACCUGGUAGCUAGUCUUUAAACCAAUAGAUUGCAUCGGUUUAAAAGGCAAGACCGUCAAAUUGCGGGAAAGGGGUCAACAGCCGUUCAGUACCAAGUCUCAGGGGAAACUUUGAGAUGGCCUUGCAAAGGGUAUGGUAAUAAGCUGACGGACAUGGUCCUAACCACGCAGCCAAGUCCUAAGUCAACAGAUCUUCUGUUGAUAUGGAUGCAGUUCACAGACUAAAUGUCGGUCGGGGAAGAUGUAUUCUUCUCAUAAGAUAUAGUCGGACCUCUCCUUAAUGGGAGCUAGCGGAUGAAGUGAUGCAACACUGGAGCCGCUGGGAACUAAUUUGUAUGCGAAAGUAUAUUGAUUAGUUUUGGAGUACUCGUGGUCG;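 also: selection with 25 µg/mL kanamycin versus none on LB agar overnight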
# CONDITION_NOTES: 37 °C
Label true for high-side self-splicing fitness (ln) (at or above -1) and false for low-side self-splicing fitness (ln) (below it).

Use the examples below as a reference point.
* UCGUAGCAAUAUUACGGCAA | true
* UUCAAGCAAUAUUACGGUCU | false
* CCCGAGCAAUAUUACGUGAC | false

# next sequence below
Prompt: Does AACUAGCAAUAUUACGAAUA have a reported self-splicing fitness (ln) of at least -1?
Completion: false

* * *

# ASSAY_SUMMARY: self-splicing fitness, log relative to wild type (ln ratio); higher = more splicing; Tetrahymena group I intron in knt gene, E. coli kanamycin selection, DiMSum; sequences stand for … in CUCUCU…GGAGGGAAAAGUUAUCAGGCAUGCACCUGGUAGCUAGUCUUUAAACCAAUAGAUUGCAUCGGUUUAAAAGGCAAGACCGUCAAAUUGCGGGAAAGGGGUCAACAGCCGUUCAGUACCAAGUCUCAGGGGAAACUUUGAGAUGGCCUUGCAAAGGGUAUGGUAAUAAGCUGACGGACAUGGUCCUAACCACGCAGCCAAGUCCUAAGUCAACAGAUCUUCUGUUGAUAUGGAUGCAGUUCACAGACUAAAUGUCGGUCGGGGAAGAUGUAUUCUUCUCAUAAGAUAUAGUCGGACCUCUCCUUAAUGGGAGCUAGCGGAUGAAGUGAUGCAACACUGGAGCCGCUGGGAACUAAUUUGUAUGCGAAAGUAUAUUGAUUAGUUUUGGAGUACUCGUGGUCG
# CONDITION_NOTES: 30 °C
Range-based classes on measured self-splicing fitness (ln): lower segment: < -3; middle segment: ≥ -3 and < -2; upper segment: ≥ -2

Prompt: Lab note: which band did GGCUAGCAAUAUUACGAGGC land in?
Completion: middle segment

Prompt: Sort into band: AUAGAGCAAUAUUACGUCAA
Completion: middle segment

Prompt: Kindly identify the class of CUGCAGCAAUAUUACGCCAG .
Completion: middle segment

Prompt: Which band does AACGAGCAAUAUUACGCUUU fall in?
Completion: lower segment

Prompt: Class label required: UAACAGCAAUAUUACGCGGA
Completion: middle segment

* * *

# ASSAY_SUMMARY: self-splicing fitness, log relative to wild type (ln ratio); higher = more splicing; Tetrahymena group I intron in knt gene, E. coli kanamycin selection, DiMSum; sequences stand for … in CUCUCU…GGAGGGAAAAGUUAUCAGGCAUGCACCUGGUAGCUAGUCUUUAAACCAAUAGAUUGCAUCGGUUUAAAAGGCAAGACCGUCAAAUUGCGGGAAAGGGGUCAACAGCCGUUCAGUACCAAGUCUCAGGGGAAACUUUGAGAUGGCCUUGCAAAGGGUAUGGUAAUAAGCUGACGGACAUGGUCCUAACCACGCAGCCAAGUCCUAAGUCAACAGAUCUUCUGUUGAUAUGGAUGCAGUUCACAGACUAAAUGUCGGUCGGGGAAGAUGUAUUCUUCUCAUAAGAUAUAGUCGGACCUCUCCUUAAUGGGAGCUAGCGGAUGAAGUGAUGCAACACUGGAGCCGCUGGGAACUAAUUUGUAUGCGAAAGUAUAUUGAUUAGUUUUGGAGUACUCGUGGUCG
# CONDITION_NOTES: 37 °C
So I've got a bunch of sequences here, and I need their self-splicing fitness (ln) values.
One number for each entry.

Example sequences with recorded self-splicing fitness (ln):
• UGUGAGCAAUAUUACGAACG = 0.261
• UCCCAGCAAUAUUACGAUGC = -3.29
• CUAGAGCAAUAUUACGCAAG = -0.42
• CCGAAGCAAUAUUACGUCUA = -2.25
• AUUAAGCAAUAUUACGUGCU = -0.835
• CUCCAGCAAUAUUACGAUAC = -1.94
• AGCCAGCAAUAUUACGCAGG = -2.62
• CGGGAGCAAUAUUACGUUCG = -1.75
• ACAAAGCAAUAUUACGUCUA = -0.824
• AGGAAGCAAUAUUACGUAUU = -0.582

Below is a list of sequences. For each, state its recorded self-splicing fitness (ln).
1. AUAGAGCAAUAUUACGCCAG
2. CGCUAGCAAUAUUACGGUCA
3. AGGAAGCAAUAUUACGAGGG
4. CCGGAGCAAUAUUACGAUCG
5. UCGUAGCAAUAUUACGAUAU
6. CUGGAGCAAUAUUACGCUGG
7. UAGAAGCAAUAUUACGAGAU

Completion:
1: -1.14; 2: 0.137; 3: -3.07; 4: 0.299; 5: -1.85; 6: -2.98; 7: -2.16

For each of the items listed, what is its self-splicing fitness (ln)?
1. CCCGAGCAAUAUUACGCGUU
2. GACGAGCAAUAUUACGUCCU
3. GGUGAGCAAUAUUACGCAAU
4. AACCAGCAAUAUUACGUGCU
5. AGCUAGCAAUAUUACGAGCU
6. UUCUAGCAAUAUUACGCCAC
7. AUUCAGCAAUAUUACGGUCU

Completion:
-2.22
-1.81
-1.94
-1.94
-1.92
-2.02
0.126

Please go through the list and note self-splicing fitness (ln) for each sequence.
1. CGCUAGCAAUAUUACGGAUC
2. ACAUAGCAAUAUUACGGCGG
3. CACUAGCAAUAUUACGCUCC

Completion:
1. -1.14
2. -0.52
3. -1.46

Items follow; give self-splicing fitness (ln) for each.
1. UAACAGCAAUAUUACGUGGC
2. AUAAAGCAAUAUUACGAAGU
3. ACCAAGCAAUAUUACGGCUA
4. GUGAAGCAAUAUUACGAUGA
5. UAUUAGCAAUAUUACGCAAU

Completion:
-2.56
-1.01
-0.0302
0.631
-1.77

Each of the following entries comes with a recorded value; kindly state self-splicing fitness (ln) for each.
1. AACCAGCAAUAUUACGCCUG
2. AUGGAGCAAUAUUACGCGUG
3. CUACAGCAAUAUUACGUGAC
4. GGCUAGCAAUAUUACGAAUU
5. UGCCAGCAAUAUUACGAUUG
6. CCUCAGCAAUAUUACGAGAC
7. AAGAAGCAAUAUUACGCUAC

Completion:
-0.745
-1.15
-0.853
-0.299
-0.196
-2.88
-1.93

Would you be so kind as to report self-splicing fitness (ln) for each listed record?
1. CAACAGCAAUAUUACGGCGU
2. UAAAAGCAAUAUUACGGUAU
3. CAGAAGCAAUAUUACGAUAC
4. UAAGAGCAAUAUUACGGCUA
5. AUAAAGCAAUAUUACGCUUA
6. CGCAAGCAAUAUUACGAAAA
7. GAGGAGCAAUAUUACGUGGA
8. UUACAGCAAUAUUACGUUUU

Completion:
1: -0.0717; 2: -1.85; 3: -1.81; 4: -0.141; 5: 0.137; 6: -2.96; 7: -2.98; 8: -0.802

Please look at the items below and tell me self-splicing fitness (ln) for each one, in order.
1. UAAGAGCAAUAUUACGAAAA
2. GACCAGCAAUAUUACGAAUA
3. AACAAGCAAUAUUACGCUCA
4. GGAAAGCAAUAUUACGAUUU
5. CCCAAGCAAUAUUACGGGGC
6. CGGAAGCAAUAUUACGGGCA
7. CACCAGCAAUAUUACGUUCC

Completion:
1. -2.26
2. -0.549
3. -0.27
4. 0.189
5. -3.08
6. -1.6
7. -2.45

For the 5 sequences below, give their self-splicing fitness (ln) values.
1. CUUCAGCAAUAUUACGAAUA
2. CAGCAGCAAUAUUACGUUAU
3. GCGUAGCAAUAUUACGGUCC
4. ACGGAGCAAUAUUACGUUCA
5. CGGUAGCAAUAUUACGAACU

Completion:
1: -2.09; 2: -2.93; 3: -1.02; 4: -0.749; 5: -0.755
